assay: Kit225 T Cell Assay, IL-23-stimulated STAT-dependent luciferase reporter; format: cell-based; conditions: Kit225 T cells, 20 ng/mL human recombinant IL-23, 5-6 hours, luciferase expression
parameter_measured: IC50 (nM)
Please state the figure in nM; there is no need to write the unit.

Would you kindly share the measured IC50 for `CC(=O)N1[C@H](C)CN(c2cccc(Nc3cc(NC45CC6CC(CC(O)(C6)C4)C5)nn4c(C#N)cnc34)n2)C[C@@H]1C` ? 260

For the compound shown here, `CC(C)(C)N1CCN(c2cccc(Nc3cc(N[C@@H]4CCCC[C@H]4O)nn4c(C#N)cnc34)n2)C1=O` , give the reported IC50. 580

I would be grateful if you could share the reported IC50 for `CC(C)C(=O)N1CCN(c2cccc(Nc3cc(N[C@@H]4CCCC[C@H]4O)nn4c(C#N)cnc34)n2)CC1` . 350

Give its IC50 value. Item: `N#Cc1cnc2c(Nc3cccc(-n4cccn4)n3)cc(N[C@@H]3CCCC[C@H]3O)nn12` 940

Fill in: IC50 of `N#Cc1cnc2c(Nc3ccc(C(=O)N4CCCC4)c(OCC(F)F)n3)cc(N[C@H]3CCCC[C@@H]3O)nn12` is ___ 450

IC50 lookup needed for `CC(C)(C)Oc1nc(Nc2cc(N[C@@H]3CCCC[C@H]3O)nn3c(C#N)cnc23)ccc1C(=O)N1CCCC1` , thanks. 2730

# lookup: IC50 of N#Cc1cnc2c(Nc3ccc(C(=O)NCC4CCCO4)c(OCC(F)F)n3)cc(N[C@@H]3CCCC[C@H]3O)nn12 (stereo partly drawn) 630

What measured IC50 goes with COc1cccc2ccc(Nc3cc(NC45CC6CC(O)(CC(F)(C6)C4)C5)nn4c(C#N)cnc34)nc12 (stereo not drawn) ? 360

Which IC50 is listed for `CC(C)N1CCN(c2cccc(Nc3cc(N[C@@H]4CCCC[C@H]4O)nn4c(C#N)cnc34)n2)CC1` ? 630

# IC50 lookup, item `N#Cc1cnc2c(Nc3ccc4c(C(F)(F)F)cc(C(F)(F)F)nc4n3)cc(NC34CC5CC(O)(CC(O)(C5)C3)C4)nn12` 590

I have this compound here, `CC(C)(C)C(=O)Nc1cccc(Nc2cc(N[C@@H]3CCCC[C@H]3O)nn3c(C#N)cnc23)n1` , and I need its recorded IC50. 610

Which measured IC50 value corresponds to `N#Cc1cnc2c(Nc3ccc(C(=O)N4CCCC4)c(OCC(F)(F)F)n3)cc(N[C@@H]3CCCC[C@H]3O)nn12` ? 460
